molecular target: PRMT5/MEP50 complex (Homo sapiens, UniProt O14744); test: Inhibition of recombinant N-terminal FLAG-tagged human full-length PRMT5/full length human MEP50 extracted from baculovirus expression system using [3H]-SAM as substrate preincubated for 15 mins followed by substrate addition and measured after 60 mins by multimode plate reader analysis
Sequence (O14744 whole entry): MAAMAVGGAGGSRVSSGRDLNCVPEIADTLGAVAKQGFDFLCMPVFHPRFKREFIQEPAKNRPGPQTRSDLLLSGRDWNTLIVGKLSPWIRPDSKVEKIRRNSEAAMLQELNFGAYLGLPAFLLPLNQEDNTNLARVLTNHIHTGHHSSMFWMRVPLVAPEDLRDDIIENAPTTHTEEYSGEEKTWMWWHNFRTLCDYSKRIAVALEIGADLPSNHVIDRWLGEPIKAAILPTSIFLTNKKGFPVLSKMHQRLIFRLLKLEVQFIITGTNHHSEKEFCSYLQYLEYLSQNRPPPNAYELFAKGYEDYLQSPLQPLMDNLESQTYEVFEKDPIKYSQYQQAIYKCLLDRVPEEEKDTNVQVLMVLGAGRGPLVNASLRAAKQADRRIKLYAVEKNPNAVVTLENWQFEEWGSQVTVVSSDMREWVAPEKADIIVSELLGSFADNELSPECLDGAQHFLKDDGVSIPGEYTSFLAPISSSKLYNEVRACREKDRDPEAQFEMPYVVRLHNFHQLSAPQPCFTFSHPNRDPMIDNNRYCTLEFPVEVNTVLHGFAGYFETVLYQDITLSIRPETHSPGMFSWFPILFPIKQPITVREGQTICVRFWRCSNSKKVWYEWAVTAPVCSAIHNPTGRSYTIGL
Sequence (Q9BQA1 whole entry, further chain): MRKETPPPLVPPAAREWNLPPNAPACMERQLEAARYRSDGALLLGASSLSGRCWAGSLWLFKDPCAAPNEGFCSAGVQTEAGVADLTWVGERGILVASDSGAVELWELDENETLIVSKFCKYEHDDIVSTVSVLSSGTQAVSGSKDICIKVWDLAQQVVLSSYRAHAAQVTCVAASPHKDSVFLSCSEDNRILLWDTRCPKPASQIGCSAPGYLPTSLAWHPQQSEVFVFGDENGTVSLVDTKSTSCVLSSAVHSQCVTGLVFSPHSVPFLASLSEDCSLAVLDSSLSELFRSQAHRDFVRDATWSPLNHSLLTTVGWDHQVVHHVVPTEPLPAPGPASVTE
endpoint_name: IC50 (nM)

| compound | unit_of_measure | IC50 |
| --- | --- | --- |
| Cn1cc(C(=O)Nc2ccc3c(c2)C(=O)N(C[C@H](O)CN2CCc4ccccc4C2)CC32CCC2)cn1 | nM | 16.1 |

1 = CC(=O)N1CCC(Nc2ccc3c(c2)C(=O)N(C[C@H](O)CN2CCc4ccccc4C2)CC32CCC2)CC1
2 = CC(=O)N1CCC(Nc2ccc3c(c2)C(=O)N(C[C@H](O)CN2CCc4ccccc4C2)CC32CCOC2)CC1 (stereo partly specified)
query: Which shows the larger IC50 value: 1 or 2 ? The response must carry the label of the picked entry.
result: 2
(2: 116 nM, 1: 26.4 nM)

1 = CC(=O)N1CCC(Nc2ccc3c(c2)C(=O)N(C[C@H](O)CN2CCc4ccccc4C2)CC3)CC1
2 = CC(=O)N1CCC(Nc2ccc3c(c2)C(=O)N(C[C@H](O)CN2CCc4ccccc4C2)CC32CCCC2)CC1
3 = CC(=O)N1CCC(C(=O)Nc2ccc3c(c2)C(=O)N(C[C@H](O)CN2CCc4ccccc4C2)CC32CCC2)CC1
query: Ranking field: IC50; order: falling. In your reply, arrange the labels in the requested order.
result: 1, 2, 3

I = Cn1cc(C(=O)Nc2ccc3c(c2)C(=O)N(C[C@H](O)CN2CCc4ccccc4C2)CC32CC2)cn1
II = CC(=O)N1CCC(Nc2ccc3c(n2)C(=O)N(C[C@H](O)CN2CCc4ccccc4C2)CC32CC2)CC1
query: Which shows the larger IC50 value: I or II ? The response must carry the label of the picked entry.
result: II

a = CC(=O)N1CCC(C(=O)Nc2ccc3c(c2)C(=O)N(C[C@H](O)CN2CCc4ccccc4C2)CC32CC2)CC1
b = CC(=O)N1CCC(C(=O)N2CCC3(CC2)C(=O)N(C[C@H](O)CN2CCc4ccccc4C2)c2ccccc23)CC1
query: Which shows the larger IC50 value: a or b ? The response must carry the label of the picked entry.
result: b

====

Biological target: Cytochrome P450 1A2 (Homo sapiens)
Sequence (P05177 whole entry): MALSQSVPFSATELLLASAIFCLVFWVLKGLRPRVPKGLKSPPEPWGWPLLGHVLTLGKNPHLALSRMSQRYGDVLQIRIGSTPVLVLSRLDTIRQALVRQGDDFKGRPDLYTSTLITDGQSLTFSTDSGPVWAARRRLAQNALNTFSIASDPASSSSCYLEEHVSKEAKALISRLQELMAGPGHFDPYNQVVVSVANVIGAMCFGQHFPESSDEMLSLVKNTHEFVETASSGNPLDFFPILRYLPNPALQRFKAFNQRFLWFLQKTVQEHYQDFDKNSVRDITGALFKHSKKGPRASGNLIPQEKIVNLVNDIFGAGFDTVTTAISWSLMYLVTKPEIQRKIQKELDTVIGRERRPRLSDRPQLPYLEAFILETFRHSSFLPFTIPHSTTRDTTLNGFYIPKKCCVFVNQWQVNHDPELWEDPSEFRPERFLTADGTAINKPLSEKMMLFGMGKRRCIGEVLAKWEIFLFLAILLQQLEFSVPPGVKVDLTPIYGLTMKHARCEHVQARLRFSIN
pIC50: −log10 of the molar value.
endpoint_name: pIC50

query: Recall and state the measured pIC50 for `CC(=O)N1CC2(CC(Nc3cc4c(cn3)C3(CC3)CN(C[C@H](O)CN3CCc5ccccc5C3)C4=O)C2)C1` .
result: < 4.30
